Numbers sourced from paper PMC9862227.

- SYSTEM NAME: N (1-249) (Severe acute respiratory syndrome coronavirus 2)
METRIC: Kd (µM)

- Nc1ncnc2c1ncn2[C@@H]1O[C@H](COP(=O)(O)OP(=O)(O)OP(=O)(O)O)[C@@H](O)[C@H]1O: 2000
